Parameter normalized growth: see the listing below.
# PROTOCOL_NOTES: chemical genetic growth profiling, strain panel (AID 1159580);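 note: tested at 20 µM; growth read once vehicle control cultures reached saturation at 30 °C; 1 = growth at the plate median or of vehicle wells; lower values mean less growth of the strain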
# CONDITION_LABEL: S. cerevisiae deletion strains, growth OD, locus YOR184W, strain ser1, active compounds read low
In all, about 5,500 compounds went through this assay and about 2,000 (36%) were called active. Inconclusive results (about 18%) are left out. The list shows a part of the results.

COMPOUND	normalized growth
CC(=O)O[C@@H]1CC2C(C)(C)[C@H](O)C[C@H](O)[C@]2(C)C2CC[C@@]3(C)[C@H](c4ccoc4)OC(=O)[C@H]4O[C@]43[C@@]21C (stereo partly specified)	0.967
CCC(CCC(C)[C@H]1CCC2C3CC=C4C[C@@H](O)CC[C@]4(C)C3CC[C@@]21C)C(C)C (stereo partly specified)	1.05
C=C1C2CC[C@@]3(C)[C@H](c4ccoc4)OC(=O)C[C@]13O[C@H]1CC(=O)C(C)(C)[C@H](C(O)C(=O)OC)[C@@]21C (stereo partly specified)	1.02
CC(=O)O[C@@H]1CC2C(C)(C)C(=O)CC[C@]2(C)C2CC[C@@]3(C)[C@H](c4ccoc4)OC(=O)C4OC43[C@@]21C (stereo partly specified)	0.989
CC(=O)O[C@H]1C[C@@H](O)C(C)(C)C2C[C@@H](OC(C)=O)[C@]3(C)C(CC[C@@]4(C)[C@H](c5ccoc5)OC(=O)C5OC543)[C@]21C (stereo partly specified)	0.967
CC(=O)O[C@H]1C[C@@]2(C)[C@H](c3ccoc3)OC(=O)[C@H]3O[C@]32[C@@]2(C)C1[C@]1(C)C(C[C@H]2OC(C)=O)C(C)(C)[C@H](OC(C)=O)C[C@@H]1OC(C)=O (stereo partly specified)	0.966

====

# PROTOCOL_NOTES: chemical genetic growth profiling, strain panel (AID 1159580);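 note: tested at 20 µM; growth read once vehicle control cultures reached saturation at 30 °C; 1 = growth at the plate median or of vehicle wells; lower values mean less growth of the strain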
# CONDITION_LABEL: S. cerevisiae deletion strains, growth OD, locus YNL307C, strain MCK1, active compounds read low
About 2,000 (36%) of roughly 5,500 compounds were called active. Not shown: some 18% with an inconclusive outcome. The list shows a part of the results.
Parameter normalized growth: see the listing below.
RESULT_TYPE: normalized growth

> print(dat)
                                    compound        result.type  result.value
 1      Cc1cc(=O)c2c(O)c3c(cc2o1)OC(C)(C)CC3  normalized growth         0.982
 2  COc1cccc2c1cc([N+](=O)[O-])c1c(C(=O)O)cc3c(c12)OCO3  normalized growth          1.03
 3   O=c1oc2ccccc2c(O)c1Cc1c(O)c2ccccc2oc1=O  normalized growth         0.973
 4                            Clc1ccc(Cl)cc1  normalized growth         0.991
 5  C=CCCCCCCCCCCCC(O)CC(O)CO (configuration not stated)  normalized growth         0.499
 6                 O=c1c2ccccc2oc2ccc(O)cc12  normalized growth          0.63
 7  CC(=O)CC(c1ccccc1)c1c(O)c2ccccc2oc1=O (configuration not stated)  normalized growth          1.06
 8  C=CCCCCCCCCCCCC(O)CC(O)CO (configuration not stated) (tested in a mixture with another compound)  normalized growth        0.0684
 9         CC1=CCc2c(cc3oc(C)cc(=O)c3c2O)OC1  normalized growth         0.651
10       ClC(Cl)=C(c1ccc(Cl)cc1)c1ccc(Cl)cc1  normalized growth         0.841
11       COc1cccc(-c2cc(=O)c3ccc(OC)cc3o2)c1  normalized growth         0.842
12  Cc1cc(=O)c2c(O)c3c(cc2o1)OCC(C)CC3 (configuration not stated)  normalized growth         0.719

====

# PROTOCOL_NOTES: chemical genetic growth profiling, strain panel (AID 1159580);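 note: tested at 20 µM; growth read once vehicle control cultures reached saturation at 30 °C; 1 = growth at the plate median or of vehicle wells; lower values mean less growth of the strain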
# CONDITION_LABEL: S. cerevisiae deletion strains, growth OD, locus YLR262C, strain YPT6 (second series), active compounds read low
Screen size: about 5,500 compounds; about 2,000 (36%) were called active. About 18% were inconclusive and are not listed. The list shows a part of the results.
Field 'label' (enum: Fulfilled / Not fulfilled). Set to Fulfilled when normalized growth is strictly under 1; else Not fulfilled.

> print(dat)
                                   compound          class
1  CC(C(=O)O)[C@H]1CCC2C3CC=C4C[C@@H](O)CC[C@]4(C)C3CC[C@@]21C (stereo not given in full)      Fulfilled
2  O=C1c2c(O)ccc(O)c2C(=O)c2c(NCCNCCO)ccc(NCCNCCO)c21      Fulfilled
3                   NC(=O)CC[C@@H](N)C(=O)O  Not fulfilled
4  CC(=O)OCC(=O)[C@@]1(O)CCC2C3CC[C@@H]4C[C@H](O)CC[C@]4(C)C3C(=O)C[C@@]21C (stereo not given in full)  Not fulfilled
5  CC(=O)OCC(=O)[C@H]1CCC2C3CC=C4C[C@@H](O)CC[C@]4(C)C3CC[C@@]21C (stereo not given in full)      Fulfilled
6  COc1cc2c3cc1Oc1cc(ccc1O)C[C@@H]1c4c(cc(OC)c(O)c4Oc4ccc(cc4)C[C@@H]3N(C)CC2)CC[N+]1(C)C  Not fulfilled
7        FC(F)(F)C(Cl)Br (stereo not given)  Not fulfilled

====

# PROTOCOL_NOTES: chemical genetic growth profiling, strain panel (AID 1159580);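 note: tested at 20 µM; growth read once vehicle control cultures reached saturation at 30 °C; 1 = growth at the plate median or of vehicle wells; lower values mean less growth of the strain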
# CONDITION_LABEL: S. cerevisiae deletion strains, growth OD, locus YPL055C, strain LGE1
The whole screen tested about 5,500 compounds, of which about 2,000 (36%) were called active. Another 18% or so got no clear call; they are omitted. No stated cut-off is given here; in the data, active means normalized growth mostly below about 0.91 (no sharp cut-off); inconclusive means no clear call, values can overlap the other calls; inactive means mostly above about 0.92. The list shows a part of the results.
Outcomes: active, inactive

> print(dat)
                                    compound     class
 1  CC1(C)O[C@@H]2CC3C4CCC5=CC(=O)C=C[C@]5(C)[C@@]4(F)[C@@H](O)C[C@]3(C)[C@]2(C(=O)CO)O1 (some centres not stated)  inactive
 2  CCN(CCCCOC(=O)c1ccc(OC)c(OC)c1)C(C)Cc1ccc(OC)cc1 (configuration not stated)  inactive
 3            O=C1CCCc2c1c1ccccc1n2Cc1ccccc1  inactive
 4                        CC(=O)Nc1cccc(O)c1  inactive
 5  CN1CCOC(c2ccccc2)c2ccccc2C1 (configuration not stated)  inactive
 6  N#CC1COc2ccccc2O1 (configuration not stated)  inactive
 7             O=C(N/N=C\c1ccccc1Cl)c1cccnc1  inactive
 8                CCN1CN=C(SCc2ccc(C)cc2)NC1  inactive
 9                   Cc1c(C)c(C)c(CO)c(C)c1C  inactive
10               O=C1CCCc2c1nc(-c1ccccc1)n2O  inactive
11  Cc1ccc(C(=O)O[C@H](C(=O)O)[C@H](OC(=O)c2ccc(C)cc2)C(=O)O)cc1  inactive
12  O=C(NNC(=O)c1ccccc1[N+](=O)[O-])c1ccc(Cl)cc1  inactive
13             CCCCCCCCCCc1ccc(-c2ccccc2)cc1  inactive
14             Nc1nnc(-c2cccc(Cl)c2Cl)c(N)n1  inactive
15  CCn1cc(C(=O)O)c(=O)c2cc(F)c(N3CCNCC3)cc21  inactive
16  COC(=O)C[C@H]1C(C)(C)C(=O)[C@@H]2CC3=C4CC(OC)O[C@@H](c5ccoc5)[C@]4(C)CCC3[C@@]1(C)C2=O (some centres not stated)  inactive
17       ClC(Cl)=C(c1ccc(Cl)cc1)c1ccc(Cl)cc1  inactive
18                            Clc1ccc(Cl)cc1  inactive
19                      Nc1ccc(C(=O)O)c(O)c1  inactive
20           CN1CCc2c(c3ccccc3n2Cc2ccccc2)C1    active
21                         CSc1ccc(C(=O)O)s1  inactive
22                  N#Cc1ccc([N+](=O)[O-])s1    active
23  O=C(O)C1CN(CCCP(=O)(O)O)CCN1 (configuration not stated)  inactive
24  CC(N)Cc1ccc(O)cc1 (configuration not stated)  inactive
25           Cc1cc(C(F)(F)F)c(C#N)c(=O)[nH]1  inactive
26                            NCCc1cccc(O)c1  inactive
27             Cc1cc(Br)c(OCC(=O)NN)c2c1CCC2  inactive
